System: GM3
Assay Explanation: GM3 Elisa assay
Assay type: cell-based
Condition Parameters: Table 3 (IC 50 Values); B16-FO cells; read-out: IC50_uM_Mean
Readout Type: IC50

INPUT: Would you mind telling me what IC50 value was observed for CCCCCCOc1ccc([C@@H](O)[C@@H](CN2CCCC2)NC(=O)CCCCC(=O)c2ccc(OCCOC)cc2)cc1 [Compound 443] ?
OUTPUT: ≤ 100 nM

INPUT: Would you mind telling me what IC50 value was observed for COc1ccc(OCCC(=O)N(Cc2ccc(-c3nc(C)no3)cc2)[C@H](CN2CCCC2)[C@H](O)c2ccc(O)cc2)cc1 [Compound 721] ?
OUTPUT: 3000 to 10000 nM

INPUT: Would you mind telling me what IC50 value was observed for O=C(N[C@H](CN1CCCC1)[C@H](O)c1ccc2c(c1)OCCO2)C1CCC(C(F)(F)F)CC1 (stereo partly shown) [Compound 616] ?
OUTPUT: 3000 to 10000 nM

INPUT: Would you mind telling me what IC50 value was observed for COc1ccc(CCNC(=O)N[C@H](CN2CCCC2)[C@H](O)c2ccc3c(c2)OCCO3)cc1 [Compound 480] ?
OUTPUT: 1000 to 3000 nM

====

Provide the recorded pIC50 for the entries that follow.
Tested on: GM3
Assay Explanation: GM3 Elisa assay
Assay type: cell-based
Condition Parameters: Table 3 (IC 50 Values); B16-FO cells; read-out: IC50_uM_Mean
pIC50: −log10 of the molar value.

INPUT: Would you mind telling me what pIC50 value was observed for `O=C(CCOc1ccc(F)cc1)N[C@H](CN1CC[C@@H](F)C1)[C@H](O)c1ccc2c(c1)OCCO2` ?
OUTPUT: 6.00 to 7.00

INPUT: Would you mind telling me what pIC50 value was observed for `COc1ccc(C(=O)CCCCCC(=O)N[C@H](CN2CC[C@@H](F)C2)[C@H](O)c2ccc3c(c2)OCCO3)cc1` ?
OUTPUT: ≥ 7.00

INPUT: Would you mind telling me what pIC50 value was observed for `COc1ccc(C(=O)CCCCC(=O)N[C@H](CN2CCCC2)[C@H](O)c2ccccc2OC)cc1` ?
OUTPUT: 6.00 to 7.00

INPUT: Would you mind telling me what pIC50 value was observed for `COc1ccc(C(=O)CCCCC(=O)N[C@H](CN2CCCC2)[C@H](O)c2ccc(OCCCCC(C)C)cc2)cc1` ?
OUTPUT: ≥ 7.00

INPUT: Would you mind telling me what pIC50 value was observed for `O=C(CCCCCC1CCOCC1)N[C@H](CN1CCCC1)[C@H](O)c1ccc2c(c1)OCCO2` ?
OUTPUT: 6.00 to 7.00

====

Tested on: GM3
Assay Explanation: GM3 Elisa assay
Assay type: cell-based
Condition Parameters: Table 3 (IC 50 Values); B16-FO cells; read-out: IC50_uM_Mean
Provide the recorded IC50 for the entries that follow.

INPUT: Missing value: IC50, GM3, entry `COc1ccc(C(=O)CCCCC(=O)N[C@H](CN2CCCC2)[C@H](O)c2ccc(OCCOc3cccc(C(F)(F)F)c3)cc2)cc1` . Fill in?
OUTPUT: ≤ 100 nM

INPUT: Missing value: IC50, GM3, entry `O=C(CCCCOCC(F)(F)F)N[C@H](CN1CCCC1)[C@H](O)c1ccc2c(c1)OCCO2` . Fill in?
OUTPUT: 1000 to 3000 nM

INPUT: Missing value: IC50, GM3, entry `COC[C@@H]1CCCN1C[C@@H](NC(=O)CCCCCC(=O)c1ccc(OC)cc1)[C@@H](O)c1ccc2c(c1)OCCO2` . Fill in?
OUTPUT: 100 to 1000 nM

INPUT: Missing value: IC50, GM3, entry `COCCOc1ccc(C(=O)CCCC(=O)N[C@H](CN2CCCC2)[C@H](O)c2ccc(OC(C)C)cc2)cc1` . Fill in?
OUTPUT: 100 to 1000 nM

INPUT: Missing value: IC50, GM3, entry `COc1ccc(C(=O)CCCCCC(=O)N[C@@H](CN(C)C(C)C)[C@@H](O)c2ccc3c(c2)OCCO3)cc1` . Fill in?
OUTPUT: ≤ 100 nM

INPUT: Missing value: IC50, GM3, entry `O=C(N[C@H](CN1CCCC1)[C@H](O)c1ccc2c(c1)OCCO2)C1CCOCC1` . Fill in?
OUTPUT: 3000 to 10000 nM

INPUT: Missing value: IC50, GM3, entry CC(C)Oc1ccc([C@@H](O)[C@@H](CN2CCC(F)C2)NC(=O)NCc2ccc(Cl)cc2)cc1 (some centres unmarked) . Fill in?
OUTPUT: 100 to 1000 nM

INPUT: Missing value: IC50, GM3, entry `CCCCCCCCCCCCCCCC(=O)N[C@H](CNC(C)C)[C@H](O)c1ccc2c(c1)OCCO2` . Fill in?
OUTPUT: ≤ 100 nM

INPUT: Missing value: IC50, GM3, entry COc1ccc(C(=O)CCCCCC(=O)N[C@H](CN2CC3CC3C2)[C@H](O)c2ccc3c(c2)OCCO3)cc1 (some centres unmarked) . Fill in?
OUTPUT: ≤ 100 nM

INPUT: Missing value: IC50, GM3, entry `CCCCCCCC(=O)N[C@H](CN1CCC[C@@H]1COC)[C@H](O)c1ccc2c(c1)OCCO2` . Fill in?
OUTPUT: 3000 to 10000 nM

INPUT: Missing value: IC50, GM3, entry `COc1ccc(OCCC(=O)N[C@H](CN2CCCC2)[C@H](O)c2ccc(Cl)cc2)cc1` . Fill in?
OUTPUT: 100 to 1000 nM

INPUT: Missing value: IC50, GM3, entry `COC[C@H]1CCCN1C[C@@H](NC(=O)CCCCCC(=O)c1ccc(OC)cc1)[C@H](O)c1ccc2c(c1)OCCO2` . Fill in?
OUTPUT: 3000 to 10000 nM

INPUT: Missing value: IC50, GM3, entry `O=C(CCCN1Cc2ccccc2C1=O)N[C@H](CN1CCCC1)[C@H](O)c1ccc2c(c1)OCCO2` . Fill in?
OUTPUT: 3000 to 10000 nM

INPUT: Missing value: IC50, GM3, entry `COc1ccc(OCCC(=O)N[C@H](CN2CCCC2)[C@H](O)c2ccc3c(c2)OC(F)(F)O3)cc1` . Fill in?
OUTPUT: 1000 to 3000 nM

INPUT: Missing value: IC50, GM3, entry `COc1ccc(OCCC(=O)N(Cc2nc3ccccc3s2)[C@H](CN2CCCC2)[C@H](O)c2ccc(O)cc2)cc1` . Fill in?
OUTPUT: 3000 to 10000 nM

INPUT: Missing value: IC50, GM3, entry `O=C(CCC1CCOCC1)N[C@H](CN1CCCC1)[C@H](O)c1ccc2c(c1)OCCO2` . Fill in?
OUTPUT: 3000 to 10000 nM

INPUT: Missing value: IC50, GM3, entry `CCCCCCCCCCCCCCCC(=O)N[C@H](CN(C)Cc1ccccc1)[C@H](O)c1ccc2c(c1)OCCO2` . Fill in?
OUTPUT: 3000 to 10000 nM

INPUT: Missing value: IC50, GM3, entry `O=C(CCCCOC1CCOCC1)N[C@H](CN1CCCC1)[C@H](O)c1ccc2c(c1)OCCO2` . Fill in?
OUTPUT: 3000 to 10000 nM

INPUT: Missing value: IC50, GM3, entry `CCCCCCCC(=O)N[C@H](CN1CCC[C@@H]1C)[C@@H](O)c1ccc2c(c1)OCCO2` . Fill in?
OUTPUT: 1000 to 3000 nM

INPUT: Missing value: IC50, GM3, entry `COCCc1ccc([C@@H](O)[C@@H](CN2CCCC2)NC(=O)CCCCCC(=O)c2ccc(OC)cc2)cc1` . Fill in?
OUTPUT: ≤ 100 nM

INPUT: Missing value: IC50, GM3, entry `COc1ccc(C(=O)CCCCC(=O)N[C@H](CN2CCCC2)[C@H](O)c2ccc(OCCCOc3ccc(F)cc3)cc2)cc1` . Fill in?
OUTPUT: ≤ 100 nM

INPUT: Missing value: IC50, GM3, entry `COc1ccc([C@@H](O)[C@@H](CO)NC(=O)OCc2ccccc2)cc1F` . Fill in?
OUTPUT: 3000 to 10000 nM

INPUT: Missing value: IC50, GM3, entry `COc1ccc(OCCC(=O)N[C@H](CN2CCCC2)[C@H](O)c2ccc(Cl)s2)cc1` . Fill in?
OUTPUT: 1000 to 3000 nM
